molecular target: IMP-27 (Proteus mirabilis, UniProt F8UQX1); construct: gene PCR amplified from 2009 isolate DNA, pET-9a, E. coli BL21(DE3)/pLysS; KF501391 is the class 2 integron record; assay: inhibition of nitrocefin hydrolysis, spectrophotometric initial rates; type: biochemical; conditions: read-out: IMP-27 / Km or Ki
Sequence (F8UQX1 entry or part of it): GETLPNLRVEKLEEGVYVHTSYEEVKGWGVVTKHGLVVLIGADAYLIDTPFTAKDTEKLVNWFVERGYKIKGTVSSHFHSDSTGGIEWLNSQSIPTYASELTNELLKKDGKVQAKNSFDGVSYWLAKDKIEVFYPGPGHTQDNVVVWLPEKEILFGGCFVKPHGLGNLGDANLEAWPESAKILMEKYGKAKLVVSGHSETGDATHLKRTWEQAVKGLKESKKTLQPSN
value_type: Ki (mM)

* CCN1CCN(C(=O)N[C@@H](C(=O)N[C@@H]2C(=O)N3[C@@H]2SC(C)(C)[C@@H]3C(=O)O)c2ccccc2)C(=O)C1=O | 3

====

target: IMP-27 (Proteus mirabilis); construct: gene PCR amplified from 2009 isolate DNA, pET-9a, E. coli BL21(DE3)/pLysS; KF501391 is the class 2 integron record; test: spectrophotometric initial rates; type: biochemical
value_type: Ki

- C[C@H]1[C@H](NC(=O)/C(=N\OC(C)(C)C(=O)O)c2csc(N)n2)C(=O)N1S(=O)(=O)O [aztreonam]: > 23 mM
